Test system: carbonyl reductase
assay info: Reduction activity of the enzyme on various ketones and aldehyde (initial rate of NADPH decrease)
Assay type: biochemical, Ogataea minuta var. nonfermentans IFO 1473
condition context: relative to 2,2,2-trifluoroacetophenone defined as 100; NADPH, 0.1 M phosphate buffer pH 7.0
Mark Yes for Specific activity (%) under 30%, No if at or over.

Incoming: Please indicate whether the reported Specific activity (%) of O=Cc1ccccc1[N+](=O)[O-] is strictly below 30%.
Outgoing: No

Incoming: Is Specific activity (%) strictly under 30% for the entry O=Cc1cccc([N+](=O)[O-])c1 ?
Outgoing: No

Incoming: is_below(Specific activity (%), 30%) for CCOC(=O)C(=O)C(C)C [Ethyl-3-methyl-2-oxobutanoate] ?
Outgoing: No

Incoming: Quick check: does O=Cc1ccc(Cl)cc1 have Specific activity (%) under 30%?
Outgoing: Yes

Incoming: Bench note: check whether CC(=O)c1cccc(Br)c1 shows Specific activity (%) below 30%
Outgoing: Yes

Incoming: State whether 30% exceeds Specific activity (%) recorded for CC1(Cl)CCCCC1=O (stereo not shown) .
Outgoing: No

Incoming: Identify whether the compound O=Cc1cccc(Cl)c1 records Specific activity (%) below 30%.
Outgoing: Yes

Incoming: Field: below-cutoff. Rule: recorded Specific activity (%) strictly less than 30%. Subject: CC1(C)COC(=O)C1=O
Outgoing: Yes

Incoming: Strictly below 30%: is that where Specific activity (%) of O=Cc1ccccc1Cl sits?
Outgoing: No

Incoming: Item CCOC(=O)CC(=O)c1ccccc1 [Ethyl benzoylacetate] : Specific activity (%) beneath 30%, strictly?
Outgoing: Yes
